target: prostate specific membrane antigen (PSMA) (UniProt Q04609 1-750, limits assumed); experiment: cell-based or functional assay
Sequence (Q04609 whole entry): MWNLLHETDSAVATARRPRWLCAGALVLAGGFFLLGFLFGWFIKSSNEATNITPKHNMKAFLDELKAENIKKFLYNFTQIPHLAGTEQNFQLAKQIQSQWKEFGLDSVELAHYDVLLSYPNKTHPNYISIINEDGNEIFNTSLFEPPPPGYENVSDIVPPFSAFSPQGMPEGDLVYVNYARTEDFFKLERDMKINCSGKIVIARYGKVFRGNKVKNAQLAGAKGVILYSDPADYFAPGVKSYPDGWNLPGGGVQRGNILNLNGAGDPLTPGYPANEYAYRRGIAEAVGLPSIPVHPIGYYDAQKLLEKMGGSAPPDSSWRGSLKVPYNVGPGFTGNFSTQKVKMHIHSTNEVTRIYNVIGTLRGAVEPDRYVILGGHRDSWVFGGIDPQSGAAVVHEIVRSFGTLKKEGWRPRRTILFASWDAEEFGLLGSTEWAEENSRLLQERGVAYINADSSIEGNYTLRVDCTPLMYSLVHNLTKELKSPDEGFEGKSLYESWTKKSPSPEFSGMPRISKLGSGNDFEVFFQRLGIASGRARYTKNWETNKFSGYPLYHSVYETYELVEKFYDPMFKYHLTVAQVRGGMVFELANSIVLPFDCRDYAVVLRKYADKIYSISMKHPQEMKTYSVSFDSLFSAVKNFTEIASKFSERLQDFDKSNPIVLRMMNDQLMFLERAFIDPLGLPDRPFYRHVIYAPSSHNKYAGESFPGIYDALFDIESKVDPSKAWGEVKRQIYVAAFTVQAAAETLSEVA
Quick list: LNCaP cells IC50 (nM), cytotoxicity (CellTiterGlo) per entry.
measurement.kind: LNCaP cells IC50 (nM), cytotoxicity (CellTiterGlo)

INSERT INTO assay_data (binder, readout_unit, reported_value) VALUES
  ('P233FR9P1001-H3-1 vcMMAF conjugate (designed binder, vc-MMAF conjugated through a sortase tag (Gly3-vc-MMAF, sortase A)) LPAPKNLVVSRVTEDSARLSWTAPDAAFDSFPIGYWEWDDDGEAIVLTVPGSERSYDLTGLKPGTEYHVYIAGVKGGQWSFPLSAIFTT', 'nM', 0.4),
  ('P229CR5P819_H11 vcMMAF conjugate (designed binder, vc-MMAF conjugated through a sortase tag (Gly3-vc-MMAF, sortase A)) LPAPKNLVVSRVTEDSARLSWDIDEQRDWFDSFLIQYQESEKVGEAIVLTVPGSERSYDLTGLKPGTEYTVSIYGVYHVYRSSNPLSAIFTT', 'nM', 9.3),
  ('P233FR9_H10 vcMMAF conjugate (designed binder, vc-MMAF conjugated through a sortase tag (Gly3-vc-MMAF, sortase A)) LPAPKNLVVSRVTEDSARLSWTAPDAAFDSFAIGYWEWDDDGEAIVLTVPGSERSYDLTGLKPGTEYPVYIAGVKGGQWSFPLSAIFTT', 'nM', 0.5),
  ('P234CR9_H01 vcMMAF conjugate (designed binder, vc-MMAF conjugated through a sortase tag (Gly3-vc-MMAF, sortase A)) LPAPKNLVVSRVTEDSARLSWEWWVIPGDFDSFLIQYQESEKVGEAIVLTVPGSERSYDLTGLKPGTEYTVSIYGVVNSGQWNDTSNPLSAIFTT', 'nM', 22.6);

# credit: patent US20190184028A1
